B1: TPR 5TU (parent)
chain: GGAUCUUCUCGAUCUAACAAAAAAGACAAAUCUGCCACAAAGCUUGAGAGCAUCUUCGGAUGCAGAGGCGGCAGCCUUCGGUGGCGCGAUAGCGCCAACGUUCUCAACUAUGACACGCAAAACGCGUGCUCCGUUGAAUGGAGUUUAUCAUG

variants of: B1; assay: polymerase ribozyme fitness, log enrichment relative to wild type (log ratio); higher = more active; in vitro selection for triplet polymerase activity
Fewer inactive variants are shown than the library holds.
Measured parameter: polymerase ribozyme fitness (log ratio)
Lab note: write the figure by itself, no unit.

Ask: What value of polymerase ribozyme fitness (log ratio) has been recorded for this entry: C38U U145A
Result: 0.631

Ask: What value of polymerase ribozyme fitness (log ratio) has been recorded for this entry: G50A G86A C131U
Result: -1.93

Ask: What value of polymerase ribozyme fitness (log ratio) has been recorded for this entry: C38U G86U
Result: -1.57

Ask: What value of polymerase ribozyme fitness (log ratio) has been recorded for this entry: U33G U61A
Result: -3.72

Ask: What value of polymerase ribozyme fitness (log ratio) has been recorded for this entry: A22U C108U
Result: -2.85

Ask: What value of polymerase ribozyme fitness (log ratio) has been recorded for this entry: G92A U101G C149U
Result: -3.56
